# assay system: human IGF-1R (Homo sapiens)
# Construct: human IGF-1R, amino acids 954-1367 expressed by baculovirus in Sf21 cells; GST (C)
# Sequence (P08069 954-1367): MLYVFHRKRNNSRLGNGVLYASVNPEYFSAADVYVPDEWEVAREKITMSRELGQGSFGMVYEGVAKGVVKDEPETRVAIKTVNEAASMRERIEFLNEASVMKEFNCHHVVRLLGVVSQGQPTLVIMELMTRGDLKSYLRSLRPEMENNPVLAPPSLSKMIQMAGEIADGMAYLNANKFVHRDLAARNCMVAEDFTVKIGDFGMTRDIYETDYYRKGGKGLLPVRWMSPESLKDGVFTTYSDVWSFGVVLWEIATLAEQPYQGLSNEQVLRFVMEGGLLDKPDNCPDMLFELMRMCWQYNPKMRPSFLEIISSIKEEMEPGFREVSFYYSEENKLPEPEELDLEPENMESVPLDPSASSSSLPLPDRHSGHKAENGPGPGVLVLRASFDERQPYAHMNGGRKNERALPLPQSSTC
# assay overview: IGF-1R homogenous time-resolved fluorescence (HTRF) in vitro kinase assay
# conditions: recombinant GST-tagged human IGF-1R aa 954-1367; ATP 50 μM; 60 minutes at room temperature
metric name: IC50

Sample answers from the record:
| compound | assay system | IC50 |
| --- | --- | --- |
| COc1cc(N2CCC(N3CCN(C)CC3)CC2)ccc1Nc1ncc(Br)c(Oc2ccc3cccnc3c2)n1 [Example 51] | human IGF-1R (Homo sapiens) | 10 to 50 nM |
| CCN1CCN(c2ccc(Nc3ncc(Br)c(Nc4ccc5[nH]c(CCc6ccccc6)nc5c4)n3)cc2)CC1 [Example 3] | human IGF-1R (Homo sapiens) | > 500 nM |
| COc1cc(N2CCC(N(C)C)CC2)ccc1Nc1ncc(Cl)c(Nc2cccc3[nH]c(C)nc23)n1 [Example 17] | human IGF-1R (Homo sapiens) | > 500 nM |
| COc1cc(N2CCC(N(C)C)CC2)ccc1Nc1ncc(Br)c(Nc2ccc3sc(C)nc3c2)n1 [Example 22] | human IGF-1R (Homo sapiens) | 51 to 100 nM |
| CNC(=O)c1cc2c(cnn2C)cc1Nc1nc(Nc2ccc(N3CCOCC3)cc2OC)ncc1Br [Example 41] | human IGF-1R (Homo sapiens) | 10 to 50 nM |

Asked: Could you share what IC50 was measured for CCN1CCN(c2ccc(Nc3ncc(Br)c(Nc4ccc5ncn(Cc6ccccc6)c5c4)n3)cc2)CC1 [Example 5] , tested on human IGF-1R (Homo sapiens)?
Given back: > 500 nM

Asked: Could you share what IC50 was measured for COc1cc(N2CCC(N(C)C)CC2)ccc1Nc1ncc(Br)c(Nc2cc3cnn(C)c3cc2S(=O)(=O)C(C)C)n1 [Example 27] , tested on human IGF-1R (Homo sapiens)?
Given back: < 10 nM
